- Test system: RKO p27 uninduced (proliferating)
- ASSAY_PROCEDURE: Alamar Blue cell viability assay, anti-proliferative / cytotoxic activity on proliferating RKO cells
- Type: cell-based, human
- CONDITION_NOTES: Homo sapiens, RKOp27; RKO colon cancer cells, without Ponasterone A, 72 hours incubation, Alamar Blue; read-out: -log EC50 [mol/l] RKO p27 uninduced (proliferating) (converted)
Where a name gives a salt, the structure may show the parent alone.
Below, each entry is listed alongside its reported EC50.
METRIC_NAME: EC50

1) Cc1ccc(C(=O)N(CCCN)C(c2nc3c(Cl)c(C)nn3c(=O)n2Cc2ccccc2)C(C)C)cc1 (racemic) [Example 1, hydrochloride] = ≤ 100 nM
2) COc1ccc(C(=O)N(CCCN)C(c2nc3c(Cl)c(C)nn3c(=O)n2Cc2ccccc2)C(C)C)cc1 (racemic) [Example 15, hydrochloride] = ≤ 100 nM
3) Cc1nn2c(=O)n(Cc3ccccc3)c(C(C(C)C)N(CCCN)C(=O)c3ccc(Cl)cc3)nc2c1Cl (racemic) [Example 5, hydrochloride] = ≤ 100 nM
4) Cc1nn2c(=O)n(Cc3ccccc3)c(C(C(C)C)N(CCCN)C(=O)c3ccc(F)cc3)nc2c1Cl (racemic) [Example 6, hydrochloride] = 100 to 1000 nM
5) COc1cc2nc(C(C(C)C)N(CCCN)C(=O)c3ccc(C)cc3)n(Cc3ccccc3)c(=O)n2n1 (racemic) [Example 20] = ≤ 100 nM
6) Cc1ccc(C(=O)N(CCCN)C(c2nc3cc(OC(F)F)nn3c(=O)n2Cc2ccccc2)C(C)C)cc1 (racemic) [Example 10, hydrochloride] = ≤ 100 nM
7) Cc1nn2c(=O)n(Cc3ccccc3)c(C(C(C)C)N(CCCN)C(=O)c3cccc(Cl)c3Cl)nc2c1Cl (racemic) [Example 14, hydrochloride] = 100 to 1000 nM
